# credit: patent US20110097340A1

Item-by-item account of kon
# Measurement Target: T1, human VEGF165 (human, UniProt P15692 207-395)
# T1 construct: Recombinant (R&D Systems 293-VE; sf21- or HEK 293-expressed depending on the assay); Biotinylated in the DELFIA assay; also called hVEGF165; rHu-VEGF165
# T1 sequence (P15692 other isoform, or with tags, fused parts or gaps limits assumed): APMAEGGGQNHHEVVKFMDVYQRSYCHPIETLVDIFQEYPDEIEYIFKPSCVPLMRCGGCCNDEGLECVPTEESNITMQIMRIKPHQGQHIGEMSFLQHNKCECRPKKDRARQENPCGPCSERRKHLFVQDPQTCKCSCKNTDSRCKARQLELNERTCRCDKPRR
# Protocol: Biacore 2000, hVEGF165 amine-coupled on C1 chip, antibody injected, 1:1 fit
Please respond with the number in M⁻¹ s⁻¹ and leave the unit unwritten.

INSERT INTO assay_data (binder, unit_text, val) VALUES
  ('XPA.10.064 IgG2 (antibody, V domains shown, Converted to IgG with gamma-2 heavy chain constant region; Expressed in 293E cells; also called parental XPA.10.064; VPA.10.064) VH: EVQLVQSGAEVRKPGASVKVSCKASGYSFTGHYIHWVRQAPGQGLEWMGWINPYSGGTNFPREFQGRVTMTRDTSVNTVYMELTRLTSDDTSVYYCARDHRIVGGLDYWGQGTLVTVSS VL: SYVLTQPPSASGTPGQRVTISCSGSSSNIGINYVYWYQQLPGTAPKLLIYRNDQRPSGVPDRFSGSKSGTSASLAISGLRSEDEADYYCATWDDSLSGVVFGGGTKVTVL', 'M⁻¹ s⁻¹', 193000),
  ('XPA.10.064.04 IgG2 (antibody, V domains shown, IgG2) VH: EVQLVQSGAEVRKPGASVKVSCKASGYSFTGHYIHWVRQAPGQGLEWMGWINPYSGGTNFPREFQGRVTMTRDTSVNTVYMELTRLTSDDTSVYYCARDEMQNGGLDYWGQGTLVTVSS VL: SYVLTQPPSASGTPGQRVTISCSGSSSNIGINYVYWYQQLPGTAPKLLIYRNDQRPSGVPDRFSGSKSGTSASLAISGLRSEDEADYYCATWDDSLSGVVFGGGTKVTVL', 'M⁻¹ s⁻¹', 150000);

Task: Quick one: kon of XPA.10.064.10 IgG2 (antibody, V domains shown, IgG2) VH: EVQLVQSGAEVRKPGASVKVSCKASGYSFTGHYIHWVRQAPGQGLEWMGWINPYSGGTNFPREFQGRVTMTRDTSVNTVYMELTRLTSDDTSVYYCARDEMVWGGLDYWGQGTLVTVSS VL: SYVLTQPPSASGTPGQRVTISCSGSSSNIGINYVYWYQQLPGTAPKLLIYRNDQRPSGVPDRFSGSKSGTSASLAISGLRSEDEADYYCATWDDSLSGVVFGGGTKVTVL ?
Result: 216000

Task: So what's the measured kon for this one? XPA.10.064.03 IgG2 (antibody, V domains shown, IgG2) VH: EVQLVQSGAEVRKPGASVKVSCKASGYSFTGHYIHWVRQAPGQGLEWMGWINPYSGGTNFPREFQGRVTMTRDTSVNTVYMELTRLTSDDTSVYYCARDQMVHGGLDYWGQGTLVTVSS VL: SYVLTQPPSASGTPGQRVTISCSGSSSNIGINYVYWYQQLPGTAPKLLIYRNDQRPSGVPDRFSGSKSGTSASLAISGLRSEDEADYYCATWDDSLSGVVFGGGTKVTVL
Result: 196000

Task: I'd like to know its kon. The binder in question is XPA.10.064.07 IgG2 (antibody, V domains shown, IgG2) VH: EVQLVQSGAEVRKPGASVKVSCKASGYSFTGHYIHWVRQAPGQGLEWMGWINPYSGGTNFPREFQGRVTMTRDTSVNTVYMELTRLTSDDTSVYYCARDEMHVGGLDYWGQGTLVTVSS VL: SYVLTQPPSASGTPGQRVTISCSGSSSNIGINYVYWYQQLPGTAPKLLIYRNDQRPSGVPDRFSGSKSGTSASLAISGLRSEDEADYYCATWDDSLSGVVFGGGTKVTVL
Result: 207000

Task: Given XPA.10.064.06 IgG2 (antibody, V domains shown, IgG2) VH: EVQLVQSGAEVRKPGASVKVSCKASGYSFTGHYIHWVRQAPGQGLEWMGWINPYSGGTNFPREFQGRVTMTRDTSVNTVYMELTRLTSDDTSVYYCARDEMTRGGLDYWGQGTLVTVSS VL: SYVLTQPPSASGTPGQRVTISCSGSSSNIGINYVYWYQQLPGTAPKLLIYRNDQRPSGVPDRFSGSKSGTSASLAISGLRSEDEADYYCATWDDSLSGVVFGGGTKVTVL , state its recorded kon.
Result: 178000
